# credit: patent US7553966B2

system_name: human glucocorticoid receptor (GR) complex (Homo sapiens)
Construct: made in house; host or cells: insect expression system (baculovirus lysate)
measurement_protocol: Glucocorticoid Receptor Competitive Binding Assay (fluorescence polarization, TAMRA-labeled dexamethasone probe)
test_settings: qualitative statement; competition with TAMRA-labeled dexamethasone
Protocol: Compounds of the invention were evaluated for binding to the steroid receptor by a fluorescence polarization competitive binding assay. A. Glucocorticoid Receptor Competitive Binding Assay Step 1. Characterization of the Fluorescent Probe The wavelengths for maximum excitation and emission of the fluorescent probe should first be measured. […] The affinity of the probe for the steroid receptor was then determined in a titration experiment. […]
measured_metric: activity in the GR binding assay

// solved cases for activity in the GR binding assay follow
1. CC(C)(CC(O)(Cc1cc2cnccc2[nH]1)C(F)(F)F)c1ccc(F)cc1O (centres unmarked)	potent activity
2. COC(=O)c1ccc2[nH]c(CC(O)(CC(C)(C)c3cc(F)ccc3OC)C(F)(F)F)cc2c1 (centres unmarked)	potent activity
3. COc1ccc(Br)cc1C(C)(C)CC(O)(Cc1cc2ccccc2[nH]1)C(F)(F)F (centres unmarked)	potent activity
4. Cc1cccc(C)c1C(C)(C)CC(O)(Cc1ccnc2ccccc12)C(F)(F)F (centres unmarked)	potent activity
5. COc1ccc(F)cc1C(C)(C)CC(O)(Cc1ccnc2cc(F)ccc12)C(F)(F)F (centres unmarked)	potent activity

Request: So what's the measured activity in the GR binding assay for this one? CC(C)(CC(O)(Cc1cc2cccc(F)c2[nH]1)C(F)(F)F)c1ccccc1 (centres unmarked)
Response: potent activity

Request: What value of measured activity in the GR binding assay is listed for CC(C)(CC(O)(Cc1cc2cnccc2[nH]1)C(F)(F)F)c1cccc2c1OCC2 (centres unmarked) ?
Response: potent activity

Request: If you can, please state the reported activity in the GR binding assay value of COc1ccccc1C(C)(C)CC(O)(Cc1ccnc2ccccc12)C(F)(F)F (centres unmarked) .
Response: potent activity

Request: Which measured activity in the GR binding assay value corresponds to CC(C)(CC(O)(Cc1ccnc2ccccc12)C(F)(F)F)c1ccccc1O (centres unmarked) ?
Response: potent activity

Request: Entry Cc1c(CC(O)(CC(C)(C)c2cc(F)ccc2O)C(F)(F)F)[nH]c2cnccc12 (centres unmarked) : reported activity in the GR binding assay = ?
Response: potent activity

Request: Give its activity in the GR binding assay value. Item: COc1ccc(F)cc1C(C)(C)CC(O)(Cc1nc2cccc(C)c2[nH]1)C(F)(F)F (centres unmarked)
Response: potent activity

* * *

system_name: human glucocorticoid receptor (GR) complex (Homo sapiens, UniProt P04150)
Construct: made in house; host or cells: insect expression system (baculovirus lysate)
Sequence (P04150 1-777): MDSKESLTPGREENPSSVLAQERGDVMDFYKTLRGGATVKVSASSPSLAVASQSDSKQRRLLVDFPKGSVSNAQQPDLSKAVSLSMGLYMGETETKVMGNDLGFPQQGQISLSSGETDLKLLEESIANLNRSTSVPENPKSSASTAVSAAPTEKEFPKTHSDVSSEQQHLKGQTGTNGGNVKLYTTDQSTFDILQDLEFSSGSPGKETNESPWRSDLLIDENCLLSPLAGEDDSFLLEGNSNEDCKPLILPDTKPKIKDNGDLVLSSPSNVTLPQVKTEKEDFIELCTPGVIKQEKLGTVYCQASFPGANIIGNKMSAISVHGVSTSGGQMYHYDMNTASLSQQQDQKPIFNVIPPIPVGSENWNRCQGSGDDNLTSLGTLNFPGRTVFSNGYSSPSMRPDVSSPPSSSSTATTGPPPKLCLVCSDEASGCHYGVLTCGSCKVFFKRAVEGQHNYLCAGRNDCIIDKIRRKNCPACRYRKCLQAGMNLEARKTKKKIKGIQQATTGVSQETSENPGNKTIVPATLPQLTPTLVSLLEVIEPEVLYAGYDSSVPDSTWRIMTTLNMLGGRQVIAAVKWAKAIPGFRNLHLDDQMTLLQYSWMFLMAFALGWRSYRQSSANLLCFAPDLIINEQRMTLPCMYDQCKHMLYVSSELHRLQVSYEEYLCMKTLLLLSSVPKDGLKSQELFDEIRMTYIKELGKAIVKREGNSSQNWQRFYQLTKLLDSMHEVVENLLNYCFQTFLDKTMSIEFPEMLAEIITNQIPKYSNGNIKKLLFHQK
measurement_protocol: Glucocorticoid Receptor Competitive Binding Assay (fluorescence polarization, TAMRA-labeled dexamethasone probe)
test_settings: qualitative statement; competition with TAMRA-labeled dexamethasone
measured_metric: activity in the GR binding assay

See these solved cases before continuing.
1) CC(C)(CC(O)(Cc1ccnc2ccccc12)C(F)(F)F)c1ccc(F)cc1O (stereo not shown)	potent activity
2) COc1cc(F)ccc1C(C)(C)CC(O)(Cc1cc2cnccc2[nH]1)C(F)(F)F (stereo not shown)	potent activity
3) CC(C)(CC(O)(Cc1cc2ccccc2[nH]1)C(F)(F)F)c1cccc(F)c1 (stereo not shown)	potent activity
4) CC(C)(CC(O)(Cc1ccnc2ccccc12)C(F)(F)F)c1cc(Br)ccc1O (stereo not shown)	potent activity

Request: Which activity in the GR binding assay value is on record for COc1ccc(F)cc1C(C)(C)CC(O)(Cc1ccnc(Br)c1)C(F)(F)F (stereo not shown) ?
Response: potent activity

Request: # activity in the GR binding assay lookup, item CC(C)(CC(O)(Cc1ccnc2ccccc12)C(F)(F)F)c1cc(F)cc2c1OCC2 (stereo not shown)
Response: potent activity

Request: Looking for the measured activity in the GR binding assay of COc1ccc(F)cc1C(C)(C)CC(O)(Cc1cc2ccccc2[nH]1)C(F)(F)F (stereo not shown) , can you help?
Response: potent activity

Request: Please give the measured activity in the GR binding assay for this compound: CCc1cccc(C(C)(C)CC(O)(Cc2cc3ccccc3[nH]2)C(F)(F)F)c1O (stereo not shown)
Response: potent activity

Request: Consider the compound CC(C)(CC(O)(Cc1cc2ccncc2[nH]1)C(F)(F)F)c1cc(F)ccc1O (stereo not shown) and give its measured activity in the GR binding assay.
Response: potent activity

Request: Using the record for CC(C)(CC(O)(Cc1cc2ccccc2[nH]1)C(F)(F)F)c1cccc2c1OCC2 (stereo not shown) , report its activity in the GR binding assay.
Response: potent activity
